- ASSAY INFO: Acidolysis (rate of scission) of acylated NMeAib amides with 2% TFA in acetonitrile
- Assay type: physicochemical
- SETUP CONDITIONS: acidolysis with 2% TFA in acetonitrile
READOUT: Half-life (h)

# SMILES STRUCTURE, Half-life, h
measured = [
    ("COC(=O)[C@H](Cc1ccccc1)NC(=O)C(C)(C)N(C)C(=O)c1ccc(C#N)cc1", 8),
]

P: COC(=O)[C@H](Cc1ccccc1)NC(=O)C(C)(C)N(C)C(=O)c1ccc(C(F)(F)F)cc1
Q: COC(=O)[C@H](Cc1ccccc1)NC(=O)C(C)(C)N(C)C(=O)c1ccc([N+](=O)[O-])cc1
R: COC(=O)[C@H](Cc1ccccc1)NC(=O)C(C)(C)N(C)C(=O)c1ccc(Cl)cc1
Task: Put the items in sequence by Half-life, from largest down. Rank them, then answer with their labels in that order.
Result: Q, P, R
(Q: 12 h, P: 5 h, R: 2 h)

Cited source for all entries: patent US6417397B1
